- Test system: A549 cells
- experiment: Mammalian cell toxicity (MTT assay) and selectivity index
- Assay type: cell-based, Human
Recorded A549 (CC50) by entry
propertyLabel: A549 (CC50) (µg/mL)

[[record]]
compound = "O.O.O.O.O.O=C([O-])c1ccccc1C(=O)[O-].[Mn+2].c1cnc2c(c1)ccc1cccnc12.c1cnc2c(c1)ccc1cccnc12 [compound 9, [Mn(ph)(phen)2(H2O)].4H2O]"
obsvalue = 259.34

[[record]]
compound = "CCO.CCO.O.O.O.O=C([O-])c1ccccc1C(=O)[O-].[Cu+2].c1cnc2c(c1)ccc1cccnc12.c1cnc2c(c1)ccc1cccnc12 [compound 2, [Cu(ph)(phen)2].3H2O.2EtOH]"
obsvalue = 1.93

[[record]]
compound = "O.O.O=C([O-])c1ccccc1C(=O)[O-].[Mn+2].c1cnc2c(c1)ccc1cccnc12 [compound 8, [Mn(ph)(phen)(H2O)2]]"
obsvalue = 234.51

[[record]]
compound = "O.O.O=C([O-])c1ccccc1C(=O)[O-].[Cu+2].c1cnc2c(c1)ccc1cccnc12 [compound 1, [Cu(ph)(phen)(H2O)2]]"
obsvalue = 0.53


###

- System: Candida haemulonii var. vulnera
- experiment: Biofilm-growing cells, XTT assay, bMIC
- Type: cell-based
- studyConditions: isolate LIP Ch9; mature biofilm, 48 h, 50% inhibition of metabolic activity
- Method: The effect of the compounds on biofilm-growing cells was determined using the previously described microtiter-based technique (Ramage et al., [2001]). […] The metabolic activity was then evaluated using a colorimetric assay that measures the metabolic reduction of 2,3-bis (2-methoxy-4-nitro-5-sulfophenyl)-5-[(phenylamino) carbonyl]-2H-tetrazolium hydroxide (XTT; Sigma-Aldrich) to a water-soluble, brown formazan product (Peeters et al., [2008]). […]
propertyLabel: bMIC (mg/L)

[[record]]
compound = "O.O.O.O.O=C1C(=O)c2cccnc2-c2ncccc21.O=C1C(=O)c2cccnc2-c2ncccc21.O=C1C(=O)c2cccnc2-c2ncccc21.[Cu+2].[O-][Cl+3]([O-])([O-])[O-].[O-][Cl+3]([O-])([O-])[O-] [compound 6, [Cu(phendione)3](ClO4)2.4H2O]"
targetofassay = "Candida haemulonii var. vulnera"
propertylabel = "bMIC"
obsvalue = 32

[[record]]
compound = "CCO.O=C([O-])COCCOCCOCC(=O)[O-].[Ag+].[Ag+].c1cnc2c(c1)ccc1cccnc12.c1cnc2c(c1)ccc1cccnc12.c1cnc2c(c1)ccc1cccnc12.c1cnc2c(c1)ccc1cccnc12 [compound 16, [Ag2(3,6,9-tdda)(phen)4].EtOH]"
targetofassay = "Candida haemulonii var. vulnera"
propertylabel = "bMIC"
obsvalue = 1


###

- Test system: Candida haemulonii var. vulnera
- experiment: Planktonic growth, broth microdilution (CLSI M27-A3), MIC
- Assay type: cell-based
- studyConditions: isolate LIP Ch5; planktonic, 48 h, 37°C
propertyLabel: MIC (µg/mL)

[[record]]
compound = "O=[N+]([O-])[O-].[Ag+] [AgNO3, reference compound]"
limitsign = "="
obsvalue = 0.5

[[record]]
compound = "O.O.O.O.O.O.O.O.O.O.O.O.O.O.O.O.O=C([O-])c1cccc(C(=O)[O-])c1.O=C([O-])c1cccc(C(=O)[O-])c1.[Mn+2].[Mn+2].c1cnc2c(c1)ccc1cccnc12.c1cnc2c(c1)ccc1cccnc12.c1cnc2c(c1)ccc1cccnc12.c1cnc2c(c1)ccc1cccnc12.c1cnc2c(c1)ccc1cccnc12 [compound 11, {[Mn(phen)2(H2O)2]}2(isoph)2(phen).12H2O]"
limitsign = "="
obsvalue = 4

[[record]]
compound = "O=C1C(=O)c2cccnc2-c2ncccc21.O=C1C(=O)c2cccnc2-c2ncccc21.[Ag+].[O-][Cl+3]([O-])([O-])[O-] [compound 15, [Ag(phendione)2]ClO4]"
limitsign = "="
obsvalue = 2

[[record]]
compound = "CCO.O.O.O.O.O.O.O=C([O-])c1cccc(C(=O)[O-])c1.[Cu+2].c1cnc2c(c1)ccc1cccnc12.c1cnc2c(c1)ccc1cccnc12 [compound 3, [Cu(isoph)(phen)2].6H2O.EtOH]"
limitsign = "="
obsvalue = 4

[[record]]
compound = "O.O.O=C([O-])c1ccccc1C(=O)[O-].[Mn+2].c1cnc2c(c1)ccc1cccnc12 [compound 8, [Mn(ph)(phen)(H2O)2]]"
limitsign = "="
obsvalue = 4

[[record]]
compound = "[Cl][Mn][Cl] [MnCl2, reference compound]"
limitsign = ">"
obsvalue = 32

[[record]]
compound = "O.O.O.O.O.O=C([O-])c1ccc(C(=O)[O-])cc1.[Mn+2].c1cnc2c(c1)ccc1cccnc12.c1cnc2c(c1)ccc1cccnc12 [compound 12, [Mn(tereph)(phen)2].5H2O]"
limitsign = "="
obsvalue = 4

[[record]]
compound = "O.O.O=C([O-])c1ccccc1C(=O)[O-].[Cu+2].c1cnc2c(c1)ccc1cccnc12 [compound 1, [Cu(ph)(phen)(H2O)2]]"
limitsign = ">"
obsvalue = 32

[[record]]
compound = "CCO.O=C([O-])CCCCCCC(=O)[O-].[Cu+2].[Cu+2].[O-][Cl+3]([O-])([O-])[O-].[O-][Cl+3]([O-])([O-])[O-].c1cnc2c(c1)ccc1cccnc12.c1cnc2c(c1)ccc1cccnc12.c1cnc2c(c1)ccc1cccnc12.c1cnc2c(c1)ccc1cccnc12 [compound 5, [Cu2(oda)(phen)4](ClO4)2.2.76H2O.EtOH]"
limitsign = "="
obsvalue = 8

[[record]]
compound = "O.O.O.O=C([O-])CCCCCCCCCC(=O)[O-].[Ag+].[Ag+].c1cnc2c(c1)ccc1cccnc12.c1cnc2c(c1)ccc1cccnc12.c1cnc2c(c1)ccc1cccnc12 [compound 18, [Ag2(phen)3(udda)].3H2O]"
limitsign = "="
obsvalue = 0.5

[[record]]
compound = "CCO.CCO.O.O.O.O=C([O-])c1ccccc1C(=O)[O-].[Cu+2].c1cnc2c(c1)ccc1cccnc12.c1cnc2c(c1)ccc1cccnc12 [compound 2, [Cu(ph)(phen)2].3H2O.2EtOH]"
limitsign = ">"
obsvalue = 32

[[record]]
compound = "[Cl][Cu][Cl] [CuCl2, reference compound]"
limitsign = ">"
obsvalue = 32

[[record]]
compound = "CCO.CCO.O=C([O-])c1ccc(C(=O)[O-])cc1.O=C([O-])c1ccc(C(=O)[O-])cc1.[Cu+2].[Cu+2].c1cnc2c(c1)ccc1cccnc12.c1cnc2c(c1)ccc1cccnc12.c1cnc2c(c1)ccc1cccnc12.c1cnc2c(c1)ccc1cccnc12 [compound 4]"
limitsign = "="
obsvalue = 32

[[record]]
compound = "O.O.O.O.O.O.O=C([O-])CCCCCCC(=O)[O-].O=C([O-])CCCCCCC(=O)[O-].O=C([O-])CCCCCCC(=O)[O-].O=C([O-])CCCCCCC(=O)[O-].[Mn+2].[Mn+2].[Mn+2].[Mn+2].c1cnc2c(c1)ccc1cccnc12.c1cnc2c(c1)ccc1cccnc12.c1cnc2c(c1)ccc1cccnc12.c1cnc2c(c1)ccc1cccnc12.c1cnc2c(c1)ccc1cccnc12.c1cnc2c(c1)ccc1cccnc12.c1cnc2c(c1)ccc1cccnc12.c1cnc2c(c1)ccc1cccnc12 [compound 13]"
limitsign = "="
obsvalue = 2

[[record]]
compound = "O.O.O.O.O.O=C([O-])c1ccccc1C(=O)[O-].[Mn+2].c1cnc2c(c1)ccc1cccnc12.c1cnc2c(c1)ccc1cccnc12 [compound 9, [Mn(ph)(phen)2(H2O)].4H2O]"
limitsign = "="
obsvalue = 2

[[record]]
compound = "O.O.O.O.O=C1C(=O)c2cccnc2-c2ncccc21.O=C1C(=O)c2cccnc2-c2ncccc21.O=C1C(=O)c2cccnc2-c2ncccc21.[Cu+2].[O-][Cl+3]([O-])([O-])[O-].[O-][Cl+3]([O-])([O-])[O-] [compound 6, [Cu(phendione)3](ClO4)2.4H2O]"
limitsign = "="
obsvalue = 4

[[record]]
compound = "CCO.O=C([O-])COCCOCCOCC(=O)[O-].[Ag+].[Ag+].c1cnc2c(c1)ccc1cccnc12.c1cnc2c(c1)ccc1cccnc12.c1cnc2c(c1)ccc1cccnc12.c1cnc2c(c1)ccc1cccnc12 [compound 16, [Ag2(3,6,9-tdda)(phen)4].EtOH]"
limitsign = "="
obsvalue = 1

[[record]]
compound = "[Ag+].[O-][Cl+3]([O-])([O-])[O-].c1cnc2c(c1)ccc1cccnc12.c1cnc2c(c1)ccc1cccnc12 [compound 17, [Ag(phen)2]ClO4]"
limitsign = "="
obsvalue = 1

[[record]]
compound = "O.O.O.O.O=C([O-])c1cccc(C(=O)[O-])c1.O=C([O-])c1cccc(C(=O)[O-])c1.[Mn+2].[Mn+2].c1cnc2c(c1)ccc1cccnc12.c1cnc2c(c1)ccc1cccnc12.c1cnc2c(c1)ccc1cccnc12 [compound 10, [Mn2(isoph)2(phen)3].4H2O]"
limitsign = "="
obsvalue = 4

